# study target: T1, CD3 expressed on cell-surface of primary human T cells (human, UniProt P07766 23-207; P04234 22-171)
# T1 construct: also called cell-surface CD3; human CD3
# T1 sequence (P07766 23-207 limits assumed, chain 1 of 2): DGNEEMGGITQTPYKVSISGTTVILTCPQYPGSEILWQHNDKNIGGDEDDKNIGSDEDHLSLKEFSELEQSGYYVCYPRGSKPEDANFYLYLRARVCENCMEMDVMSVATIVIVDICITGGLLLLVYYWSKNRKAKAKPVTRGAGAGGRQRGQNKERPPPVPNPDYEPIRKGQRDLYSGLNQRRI
# T1 sequence (P04234 22-171 limits assumed, chain 2 of 2): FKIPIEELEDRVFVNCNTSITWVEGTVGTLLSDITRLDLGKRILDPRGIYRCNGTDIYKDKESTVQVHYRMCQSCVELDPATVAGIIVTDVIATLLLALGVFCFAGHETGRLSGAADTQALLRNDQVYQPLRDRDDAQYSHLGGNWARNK
# procedure text: flow cytometry competition vs murine SP34-AF488 on human T cells, n = 1
Would you mind telling me the reported IC50 of each entry?

State the recorded IC50 for this entry: huSP34.6.2 Fab-HF (Fab, V domains shown) VH: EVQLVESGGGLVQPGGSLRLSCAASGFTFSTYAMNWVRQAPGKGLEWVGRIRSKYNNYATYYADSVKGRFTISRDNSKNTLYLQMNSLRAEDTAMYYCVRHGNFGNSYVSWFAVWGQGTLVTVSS VL: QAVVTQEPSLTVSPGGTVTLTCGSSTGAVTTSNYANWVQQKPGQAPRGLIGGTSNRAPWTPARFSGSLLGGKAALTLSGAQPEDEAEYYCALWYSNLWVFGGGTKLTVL
> 20 µg/mL

State the recorded IC50 for this entry: huSP34.4.5 Fab-HF (Fab, V domains shown) VH: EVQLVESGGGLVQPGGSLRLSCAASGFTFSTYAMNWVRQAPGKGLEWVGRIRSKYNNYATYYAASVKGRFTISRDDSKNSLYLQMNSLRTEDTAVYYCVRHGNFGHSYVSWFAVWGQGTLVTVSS VL: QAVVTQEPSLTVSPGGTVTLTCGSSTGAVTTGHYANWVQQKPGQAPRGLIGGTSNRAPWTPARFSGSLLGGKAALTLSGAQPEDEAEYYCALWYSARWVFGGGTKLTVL
> 20 µg/mL

State the recorded IC50 for this entry: huSP34.5.4 Fab-HF (Fab, V domains shown) VH: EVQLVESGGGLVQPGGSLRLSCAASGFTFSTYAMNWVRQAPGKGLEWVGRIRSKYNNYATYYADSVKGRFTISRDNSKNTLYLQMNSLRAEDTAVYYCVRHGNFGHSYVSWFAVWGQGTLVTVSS VL: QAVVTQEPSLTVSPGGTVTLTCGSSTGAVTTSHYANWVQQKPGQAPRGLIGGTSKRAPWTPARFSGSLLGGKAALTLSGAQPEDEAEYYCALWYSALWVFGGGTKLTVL
> 20 µg/mL
